Tested on: SK-MEL-5 melanoma
Assay Text: NCI tumour cell line growth inhibition, 48 h; in the data active = GI50 below about 0.43 µM; inactive = the rest
Classes used: active, inactive

> print(dat)
                              smiles.record  assigned.class
1  NS(=O)(=O)OC[C@H]1C[C@@H](Nc2ccnc3cc(-c4cccc(SC(F)(F)F)c4)nn23)[C@H](O)[C@@H]1O          active
2           O=C(NCCCCN1CCOCC1)c1cc2ccccc2o1        inactive
3  COc1ccc2c(c1)C(=O)c1c-2n(CCCN(C)C)c(=O)c2ccccc12          active
4  CCOC(=O)C1=CCCC[C@H]1S(=O)(=O)Nc1ccc(F)cc1Cl        inactive
5  COc1ccc(C2(Cl)c3ccccc3N(c3ccccc3)c3ccccc32)cc1          active
6  O=C(CN(/C=C/C(=O)C(F)(F)F)c1ccc(Cl)cc1)c1ccc(Cl)cc1        inactive
7  Cc1c(C)n(CCCN2CCN(C)CC2)c2ccc(Oc3cccc(C(=O)N4CCN(CCc5ccc(F)cc5)CC4)c3)cc12        inactive
